Source: PubChem BioAssay (NCI)

assay: NCI Yeast Anticancer Drug Screen. Data for the cln2 rad14 strain (AID 165);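 also: 0% = growth equal to vehicle treated cultures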; conditions: S. cerevisiae cln2 rad14 strain, at 50.0 µM, hits give high values
Compounds without any hit were thinned out: in the full panel of roughly 79,000, 15% have a hit.
Recorded growth inhibition by entry
Numbers only here, please. The scale is %.

For orientation, consider the following solved cases.
NC(=S)c1ccccn1 : -22.5
O=C(Nc1nc2ncn(CC(COc3ccccc3)OC(=O)c3ccccc3)c2c(=O)[nH]1)c1ccccc1 (stereo not given) : 15.2

// growth inhibition lookup, compound = C=C(Cl)CSc1ncnc2nc[nH]c12 , result: 8.05

Record CN(C)C=Nc1ccc([N+](=O)[O-])cc1 , field growth inhibition: -12.8

growth inhibition in this record for c1ccc(-c2nnnn2-c2ccccc2)cc1 : -7.5

The value of growth inhibition measured for the compound CCCNC(=S)NNC(N)=O turned out to be 6.15

Looking up O=C(c1ccccc1)N1C(c2ccccc2)C1(c1ccccc1)C1(c2ccccc2)SCCCS1 (stereo not given) , I see its growth inhibition listed as -61.6

Just so you know, measured growth inhibition for COC1OC2COC(c3ccccc3)OC2C(O)C1N=[N+]=[N-] (stereo not given) came out at -19.9

Summary for this compound, CCCCCCCCCCCCCCCCS : growth inhibition is -6.6

Short answer for O=C1CC(O)(c2ccccc2)C(c2ccccc2)=C1c1ccccc1 (stereo not given) : growth inhibition was 32.7

The compound listed as Clc1cccc(Cl)c1/C=N/N1CCN(/N=C/c2c(Cl)cccc2Cl)CC1 shows growth inhibition equal to 6.45

The compound listed as O=C1N(c2cccc(F)c2)C(=O)N1c1cccc(F)c1 shows growth inhibition equal to 13.2

So for CC1=C2CC/C(C)=C/CCC3(C)OC3CC/C(C)=C/C2OC1=O (stereo not given) , the logged growth inhibition turned out to be 15.6

Field growth inhibition (entry CC(C)=C1CC(C)(C)N=C1CCN1CCOCC1 ) reads -6

Query OCCOc1ccc2ccccc2c1-c1c(OCCO)ccc2ccccc12 yields growth inhibition of 97.7

// growth inhibition lookup, compound = CCC1c2ccccc2[C@H]2C(c3ccccc3)=NN(c3ccccc3)[C@H]2N1CC (stereo not given in full) , result: -2.9

Record Cc1ccc(S(=O)(=O)/C(C#N)=C/NC(=S)Nc2ccc(S(N)(=O)=O)cc2)cc1 . Reported growth inhibition: -6.85

growth inhibition reading for Oc1cc(OCCCc2ccc(F)cc2)cc2ccc3ccccc3c12 : -32.5

Kindly note the recorded growth inhibition for CCOC(=O)c1ccc(N=Cc2ccc(N(CCC#N)S(=O)(=O)c3ccccc3)cc2C)cc1 , which is 6.95

growth inhibition measured on CC1CCCN(C(=O)/C=C/c2ccccc2)C1 (stereo not given) = -45.8

Measured growth inhibition of CCCC(=O)C(C)(C)C : -41.5
